target: MTHFD2 recombinant human enzyme (Homo sapiens, UniProt P13995); assay: MTHFD2 inhibition assay (NAD(P)H-Glo luminescence)
Sequence (P13995 36-350): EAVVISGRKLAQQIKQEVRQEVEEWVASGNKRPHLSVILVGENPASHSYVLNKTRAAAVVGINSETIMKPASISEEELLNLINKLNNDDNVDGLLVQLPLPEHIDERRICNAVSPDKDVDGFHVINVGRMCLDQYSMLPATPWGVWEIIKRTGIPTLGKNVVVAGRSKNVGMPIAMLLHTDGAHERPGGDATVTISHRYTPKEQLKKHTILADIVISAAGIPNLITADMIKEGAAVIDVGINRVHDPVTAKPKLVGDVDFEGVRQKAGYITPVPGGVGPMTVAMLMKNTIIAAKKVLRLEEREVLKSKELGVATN
pIC50: −log10 of the molar value.
Reported pIC50 is given for each of the following compounds.
Endpoint Label: pIC50

COC[C@H]1CN(c2cc(C)c3c4c(c(=O)oc3c2C)CN(C(=O)c2ccc(C(=O)NS(=O)(=O)N(C)C)c(OC3C5CC6CC(C5)CC3C6)c2)CC4)CCN1C (stereo partly drawn) [Example 100] ... 7.00 to 8.00
CCOc1cc(C(=O)N2CCc3c(c(=O)oc4c(C)c(N5CCN(C)[C@@H](COC)C5)cc(C)c34)C2)c(F)cc1C(=O)NS(=O)(=O)N(C1CC1)C1CC1 [Example 216] ... 7.00 to 8.00
CCOc1cc(C(=O)N2CCc3c(c(=O)oc4c(C)c(N5CCN(C)[C@@H](COC)C5)cc(Cl)c34)C2)c(F)cc1C(=O)NS(=O)(=O)N1CC2CCC(C1)O2 [Example 301] ... 7.00 to 8.00
COC[C@H]1CN(c2cc(C)c3c4c(c(=O)oc3c2C)CN(C(=O)c2ccc(C(=O)NS(=O)(=O)N(C)C)c(N3CCC[C@H]3C)c2)CC4)CCN1C [Example 102] ... 7.00 to 8.00
COC[C@H]1CN(c2cc(C)c3c4c(c(=O)oc3c2C)CN(C(=O)c2ccc(C(=O)NS(=O)(=O)N3CCCC3)c(OC3CCC3)c2)CC4)CCN1C [Example 1] ... 6.00 to 7.00
COC[C@H]1CN(c2cc(C)c3c4c(c(=O)oc3c2C)CN(C(=O)c2ccc(C(=O)NS(=O)(=O)N(C)C)c(OC3C5CC6CC(C5)CC3C6)c2F)CC4)CCN1C (stereo partly drawn) [Example 90] ... 7.00 to 8.00

====

target: MTHFD2 recombinant human enzyme (Homo sapiens, UniProt P13995); test: MTHFD2 inhibition assay (NAD(P)H-Glo luminescence)
pIC50: −log10 of the molar value.
Endpoint Label: pIC50

COC[C@H]1CN(c2cc(C)c3c4c(c(=O)oc3c2C)CN(C(=O)c2ccc(C(=O)NS(=O)(=O)N(C)C)c(OC3CCC(F)(F)CC3)c2F)CC4)CCN1C [Example 85] ... 8.00 to 9.00
COC[C@H]1CN(c2cc(Cl)c3c4c(c(=O)oc3c2C)CN(C(=O)c2cc(N(C)C)c(C(=O)NS(=O)(=O)N3CC[C@@H](F)C3)cc2F)CC4)CCN1C [Example 303] ... 8.00 to 9.00
[2H]C([2H])([2H])Oc1cc(C(=O)N2CCc3c(c(=O)oc4c(C)c(N5CCN(C)[C@@H](COC)C5)cc(C)c34)C2)c(F)cc1C(=O)NS(=O)(=O)N1CCCC1 [Example 225] ... 8.00 to 9.00

====

biological target: MTHFD2 recombinant human enzyme (Homo sapiens); experiment: MTHFD2 inhibition assay (NAD(P)H-Glo luminescence); conditions: selectivity of MTHFD2 inhibition over MTHFD1, band
Endpoint Label: MTHFD1/MTHFD2 IC50 ratio

COC[C@H]1CN(c2cc(Cl)c3c4c(c(=O)oc3c2C)CN(C(=O)c2ccc(C(=O)NS(=O)(=O)N3CC5(CCC5)C3)c(OC)c2)CC4)CCN1C ... H (>9.0 to 30)
CCOc1cc(C(=O)N2CCc3c(c(=O)oc4c(C)c(N5CCN(C)[C@@H](COC)C5)cc(C)c34)C2)c(F)cc1C(=O)NS(=O)(=O)N1CCCC1 ... H (>9.0 to 30)
COC[C@H]1CN(c2ccc3c4c(c(=O)oc3c2C)CN(C(=O)c2cc(N(C)C)c(C(=O)NS(=O)(=O)N3CC5CC5C3)cc2F)CC4)CCN1C (stereo partly shown) ... H (>9.0 to 30)
COC[C@H]1CN(c2cc(C)c3c4c(c(=O)oc3c2C)CN(C(=O)c2cc(OC)c(C(=O)NS(=O)(=O)N3C5CCC3CC5)cc2F)CC4)CCN1C ... J (>30)
COC[C@H]1CN(c2cc(Cl)c3c4c(c(=O)oc3c2C)CN(C(=O)c2cc(N(C)C)c(C(=O)NS(=O)(=O)N3CC[C@H](F)C3)cc2F)CC4)CCN1C ... J (>30)
COC[C@H]1CN(c2cc(Cl)c3c4c(c(=O)oc3c2C)CN(C(=O)c2cc(F)c(C(=O)NS(=O)(=O)N3CCCC3)cc2C)CC4)CCN1C ... J (>30)
COC[C@H]1CN(c2cc(C)c3c4c(c(=O)oc3c2C)CN(C(=O)c2cc(N(C)C)c(C(=O)NS(=O)(=O)N3CCC[C@@H](OC)C3)cc2F)CC4)CCN1C ... J (>30)
CCOc1cc(C(=O)N2CCc3c(c(=O)oc4c(C)c(N5CCN(C)[C@@H](COC)C5)cc(C)c34)C2)c(F)cc1C(=O)NS(=O)(=O)N1CC[C@H](F)C1 ... J (>30)
